Just for reference, paper PMC4320081 is where these values come from.

TESTED ON: native Tsal proteins in G. m. morsitans saliva (Glossina morsitans morsitans (endogenous in saliva))
ASSAY METHOD TEXT: SPR; 4000 RU G. m. morsitans saliva amine-coupled (10 mM sodium acetate pH 4.5) on a CM5 chip; purified Nb analytes 500 to 0.976 nM; BIAcore T200; contact 180 s, dissociation 600 s, 10 ul/min; Langmuir 1:1 fit
TEST READOUT: Kd (nM)

The following binders have reported results that may help.
[
  {
    "BINDER": "TsalNb-2 (VHH) VHH: QVQLQESGGGLVQVGGSLRLSCQASGSIFSNSYMGWYRQAPGKQRELVAGITSGGSTNYADSVKGRFTISRDNAKNTVYLQMNSLKPEDTAVYYCKPRAWLTGRWENYWGQGTQVTVSS",
    "Kd, nM": 0.64
  },
  {
    "BINDER": "TsalNb-4 (VHH) VHH: QVQLQESGGGLVQVGGSLRLSCTASGSIFSINYAGWYRQAPGKQRELVAGITSGGSTNYADSVKGRFTISRDSAKNTVYLQMNSLKAEDTAVYYCKPRAWLTGRWENYWGQGTQVTVSS",
    "Kd, nM": 0.44
  }
]

[a] TsalNb-10 (VHH) VHH: QVQLQESGGGLVQVGGSLRLSCAASGSIFSNNYMGWYRQAPGKQRELVAGITSGGSTNYADSVKGRFTISRDNAKNTVYLQMNNLKPEDTAVYNCKPRGWLTGRWENYWGQGTQVTVSS
[b] TsalNb-11 (VHH) VHH: QVQLQESGGGLVQPGESLRLSCAASEFTLDYYAMAWYRQAPGKQREGVSCITSSGGRTNYADSVKGRFTISRENGKNTVYLQMSSLKPGDTAVYYCAATEWLAGTKCLGSHEYDYWGQGTQVTVSS
Sorting ascending by Kd, which comes first: a or b ? When you have decided, please share the label of that item.
a
